Field: TGI. Provide a value for each of the compounds that follow.
# Tested on: NCI-H460 lung
# assay_comment: NCI tumour cell line growth inhibition, 48 h
Counter-ions that a name gives are not always drawn. Where a SMILES comes first, the peptide text is derived from it. The star is where a group is joined. Tfa = O=C(C(F)(F)F)*

Which value of TGI has been reported for `Cc1ccc(S(=O)(=O)c2c(N)c3nc4ccccc4n3c3nc4ccccc4nc23)cc1` in the records? > 100 µM

I am curious: what TGI value has been reported for CN1C(=O)CC(c2cccc(C3CC(=O)N(C)C3=O)n2)C1=O (configuration not stated) ? > 100 µM

// lookup TGI for `COc1cc2c(cc1OC)-c1cc3ccccc3c[n+]1CC2` > 100 µM

Data request, read-out TGI, for O=C(O)CC(NC(=O)C(F)(F)F)C(=O)NC(Cc1ccc(O)cc1)C(=O)O (stereo not drawn) (Tfa-Asp-Tyr-OH; configuration not given here) > 50 µM

Would you kindly share the measured TGI for `C=CCn1c(=O)c2ccccc2[n+]2c(C)c(C(=O)OCC)sc12` ? > 100 µM

Could you share which TGI value was measured for `Cc1nc(-c2cccc(Nc3nc(-c4ccc(Cl)cc4)cs3)c2)cs1` ? 31.6 µM

Requested field: TGI. Item: CC1CC(C2=CC=CCS2)=Nc2ccccc2S1 (configuration not stated) > 100 µM
